Provenance of the data: patent US5525604A

biological target: cGMP-PDE (Homo sapiens, UniProt O76074); test: Inhibitory effect on cGMP-PDE (PDE IC isolated from human platelets, 3H-cGMP substrate); conditions: 0.2 μM 3H-cGMP, pH 8.0, 2.5% DMSO
Structures can show the parent of a compound that is named as a salt.
Measurement Type: pIC50
Please note pIC50 is a logarithmic value: minus log10 of concentration in mol/L. Answer with that number alone.

Exercise: Quick check: pIC50 of `Cc1nc(-n2ccnc2)nc(NCc2ccccc2)c1C` ?
Solution: 5.44

Exercise: # iterate: c1csc(-c2cnc(-n3ccnc3)nc2NCc2ccc3c(c2)OCO3)c1 [1(p), hydrochloride]
Solution: 7.60

Exercise: Cool, now c1cncc(CNc2nc(-n3ccnc3)ncc2-c2cccs2)c1 [1(w), dihydrochloride]
Solution: 5.70

Exercise: And `c1ccc(-c2cnc(-n3ccnc3)nc2NCc2ccc3c(c2)OCO3)cc1` ?
Solution: 7.85

Exercise: Try this molecule next: `c1ccc(CNc2nc(-n3ccnc3)ncc2Cn2ccnc2)cc1`
Solution: 4.46

---

Could you please report measured inhibition at 10 µM for the items listed next?
Molecular target: TXA2 synthetase (Rattus norvegicus, UniProt P49430)
Construct: whole blood was collected from abdominal aorta; from tissue; host or cells: heparinized whole blood of male Wistar rats (mainly platelets)
Sequence (P49430 1-533): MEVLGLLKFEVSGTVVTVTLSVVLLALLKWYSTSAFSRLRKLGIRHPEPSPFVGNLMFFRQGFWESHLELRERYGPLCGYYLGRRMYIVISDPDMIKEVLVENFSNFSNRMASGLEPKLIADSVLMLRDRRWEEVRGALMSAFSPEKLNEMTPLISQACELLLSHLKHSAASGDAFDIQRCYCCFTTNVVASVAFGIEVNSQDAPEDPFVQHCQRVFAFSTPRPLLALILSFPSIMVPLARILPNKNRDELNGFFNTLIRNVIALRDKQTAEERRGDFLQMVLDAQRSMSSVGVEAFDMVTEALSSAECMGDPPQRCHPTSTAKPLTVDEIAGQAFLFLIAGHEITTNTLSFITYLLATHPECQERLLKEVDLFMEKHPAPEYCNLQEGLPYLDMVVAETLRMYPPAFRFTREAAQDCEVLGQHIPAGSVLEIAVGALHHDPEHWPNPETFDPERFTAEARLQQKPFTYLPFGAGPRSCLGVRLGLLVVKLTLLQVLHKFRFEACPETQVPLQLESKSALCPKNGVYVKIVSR
Assay: Inhibitory effect on TXA2 synthetase (TXB2 by EIA in A23187-stimulated rat whole blood)
Format: cell-based, rat (Male Wistar rats)
Conditions: rat heparinized whole blood, Ca ionophore A23187, TXB2 by EIA, 37° C.
Counter-ions that a name gives are not always drawn.
Express your answer in %, writing the number without its unit.

Exercise: Give recorded inhibition at 10 µM with TXA2 synthetase (Rattus norvegicus, UniProt P49430) for the following compound: COCCNc1nc(-n2ccnc2)ncc1-c1cccs1 [1(x), hydrochloride]
Solution: 87

Exercise: Repeat with c1ccc(CNc2nc(-n3ccnc3)ncc2-c2nccs2)cc1 [1(o), hydrochloride]
Solution: 65

Exercise: Continue with c1cncc(-c2ncc(-c3cccs3)c(NCc3ccc4c(c3)OCO4)n2)c1 [Example 2, hydrochloride]
Solution: 75

Exercise: Then this compound: c1ccc(CONc2nc(-n3ccnc3)ncc2-c2cccs2)cc1 [1(y), hydrochloride]
Solution: 89

Exercise: For COc1ccc(Cc2cnc(-n3ccnc3)nc2NCCOCCO)cc1 [1(h)] then?
Solution: 99

Exercise: Again, but for COc1cccc(CNc2nc(-n3ccnc3)ncc2-c2cccs2)c1 [1(t), hydrochloride]
Solution: 100

Exercise: Proceed to COc1ccc(Cc2cnc(-n3ccnc3)nc2NCc2ccccc2)cc1 [1(j)]
Solution: 94

Exercise: One more compound: c1cncc(CNc2nc(-n3ccnc3)ncc2-c2cccs2)c1 [1(w), dihydrochloride]
Solution: 83

Exercise: Same for c1csc(CNc2nc(-n3ccnc3)ncc2-c2cccs2)c1 [1(v), hydrochloride]
Solution: 100

Exercise: Then what about the compound OCCOCCNc1nc(-n2ccnc2)ncc1-c1cccs1 [1(q), hydrochloride] ?
Solution: 100

Exercise: Then what about the compound c1ccc(CNc2nc(-n3ccnc3)ncc2-c2cccs2)cc1 [1(n), hydrochloride] ?
Solution: 90

Exercise: Can you check c1csc(-c2cnc(-n3ccnc3)nc2NCc2ccc3c(c2)OCO3)c1 [1(p), hydrochloride] next?
Solution: 90

Exercise: Here is the next compound: c1ccc(-c2cnc(-n3ccnc3)nc2NCc2ccc3c(c2)OCO3)cc1 [1(bb)]
Solution: 90

Exercise: Now the same for c1ccc(CNc2nc(-n3ccnc3)ncc2Cn2ccnc2)cc1 [1(l)]
Solution: 63

Exercise: And the next one, c1coc(CNc2nc(-n3ccnc3)ncc2-c2cccs2)c1 [1(u), hydrochloride] ?
Solution: 96
